Reference source for all entries: patent US20200031811A1

EXPERIMENTAL_TARGET: MNK1 (Homo sapiens, UniProt Q9BUB5)
Sequence (Q9BUB5 whole entry): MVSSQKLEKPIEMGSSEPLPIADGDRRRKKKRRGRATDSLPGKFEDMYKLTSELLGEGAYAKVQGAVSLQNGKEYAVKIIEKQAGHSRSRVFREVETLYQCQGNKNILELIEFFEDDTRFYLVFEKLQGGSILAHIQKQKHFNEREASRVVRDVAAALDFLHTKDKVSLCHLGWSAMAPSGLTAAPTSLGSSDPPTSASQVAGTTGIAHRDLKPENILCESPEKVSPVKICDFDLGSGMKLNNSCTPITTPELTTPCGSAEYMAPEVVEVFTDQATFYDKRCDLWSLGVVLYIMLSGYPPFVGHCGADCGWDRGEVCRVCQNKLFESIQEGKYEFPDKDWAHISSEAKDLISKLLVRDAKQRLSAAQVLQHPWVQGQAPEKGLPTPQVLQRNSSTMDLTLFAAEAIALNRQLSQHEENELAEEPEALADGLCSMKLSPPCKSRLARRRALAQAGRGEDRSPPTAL
ASSAY_OVERVIEW: MNK inhibition assay (Z-Lyte kinase assay, Ser/Thr 7 peptide)
RUN_CONDITIONS: recombinant GST-MNK1, 3 hours at 31° C.
pIC50: −log10 of the molar value.
RECORDED_ENDPOINT: pIC50

// known answers, use as guide
O=[N+]([O-])c1cnccc1NCc1ccc2cncc(-c3cc4ccccc4o3)c2c1	5.67
NC1CCN(Cc2ccc3cncc(-c4ccc5ccncc5c4)c3c2)CC1	6.10
Nc1ccc(Nc2ccc3cncc(-c4cc5ccccc5o4)c3c2)cn1	5.80
NC1CCN(Cc2ccc3cncc(-c4ccc5ccccc5n4)c3c2)CC1	5.43

A: Nc1cc[n+](Cc2ccc3cncc(-c4cc5ccccc5o4)c3c2)nc1
B: COc1cc2cncc(-c3cc4ccccc4o3)c2cc1N[C@H]1CC[C@H](N)CC1
C: N[C@H]1CC[C@H](Nc2ccc3c(=O)[nH]cc(-c4cc5ccccc5o4)c3c2)CC1
D: Nc1ncc(-c2cc3ccccc3o2)c2cc(CN3CCNCC3)ccc12
E: c1ccc2oc(-c3cncc4ccc(NC5CCCNC5)cc34)cc2c1 (stereo not drawn)
Sort entries by pIC50 from minimum to maximum value. Return value: ordered labels per request.
C, D, E, B, A

---

EXPERIMENTAL_TARGET: MNK1 (Homo sapiens, UniProt Q9BUB5)
ASSAY_OVERVIEW: MNK inhibition assay (Z-Lyte kinase assay, Ser/Thr 7 peptide)
RUN_CONDITIONS: recombinant GST-MNK1, 3 hours at 31° C.
RECORDED_ENDPOINT: IC50 (µM)

// known answers, use as guide
NC1CCN(Cc2cc(Cl)c3cncc(-c4ccc(Cl)cc4)c3c2)CC1	0.426
c1ccc2oc(-c3cncc4ccc(CN5CCNCC5)cc34)cc2c1	0.222
NCc1ccc(Nc2ccc3cncc(-c4cc5ccccc5o4)c3c2)cc1	0.152
O=C(c1ccc2cncc(-c3cc4ccccc4o3)c2n1)N1CCNCC1	1.3
Nc1ccc(-c2cncc3ccc(CN4CCC(N)CC4)cc23)cc1	0.093

A: Nc1ncc(-c2ccc(Cl)cc2)c2cc(CN3CCC(N)CC3)cc(Cl)c12
B: Clc1cc(NCc2ccc3cncc(-c4cc5ccccc5o4)c3c2)ccn1
C: NC1CCN(Cc2ccc3cncc(-c4ccc(Cl)c(Cl)c4)c3c2)CC1
D: CC(=O)c1cccc(-c2cncc3ccc(CN4CCC(N)CC4)cc23)c1
Sort entries by IC50 from minimum to maximum value. Return value: ordered labels per request.
A, C, D, B

---

EXPERIMENTAL_TARGET: MNK1 (Homo sapiens)
ASSAY_OVERVIEW: MNK inhibition assay (Z-Lyte kinase assay, Ser/Thr 7 peptide)
RUN_CONDITIONS: recombinant GST-MNK1, 3 hours at 31° C.
pIC50: −log10 of the molar value.
RECORDED_ENDPOINT: pIC50

// known answers, use as guide
NC1CCN(Cc2ccc3nncc(-c4ccc(Cl)cc4)c3c2)CC1	5.57
COc1cc(CN2CCC(N)CC2)cc2c(-c3ccco3)cnc(N)c12	6.54
NC1CCN(Cc2ccc3cncc(-c4cc5ncccc5o4)c3c2)CC1	6.79
N[C@H]1CC[C@@H](NC(=O)c2ccc3cncc(-c4cc5ccccc5o4)c3c2)CC1	6.33
O=C1CN(Cc2ccc3cncc(-c4ccc(O)cc4)c3c2)CCN1	6.18
NC1CCN(Cc2ccc3cncc(-c4cc5ccccc5o4)c3c2)CC1	6.96
N[C@@H]1CCN(Cc2ccc3cncc(-c4cc5ccccc5o4)c3c2)C[C@@H]1F	7.77
Nc1ncc(-c2cc3ccccc3o2)c2cc(O[C@H]3CC[C@H](N)CC3)cc(Cl)c12 [Example 320]	7.03

A: NCCCOCc1ccc2cncc(-c3ccc(Cl)c(Cl)c3)c2c1
B: Nc1cc[n+](Cc2ccc3cncc(-c4ccccc4)c3c2)cc1
Hi there, can you help? I need to know whether A or B has lower measured pIC50. Reply with the label of the item you choose.
A
(A: 5.95, B: 6.78)

A: NC1CCN(Cc2ccc3cncc(-c4ccc(NC(=O)Nc5ccccc5)cc4)c3c2)CC1
B: NC1CCN(Cc2ccc3cncc(-c4ccsc4)c3c2)CC1
Hi there, can you help? I need to know whether A or B has lower measured pIC50. Reply with the label of the item you choose.
A
(A: 6.32, B: 6.75)

I: NC1CCN(Cc2ccc3cncc(-c4ccc(NC(=O)Nc5ccncc5)cc4)c3c2)CC1
II: NC1CCN(Cc2ccc3cncc(-c4ccco4)c3c2)CC1
When I and II are compared, which has the higher number for pIC50? Reply with the label of the item you choose.
II

A: NCc1ccccc1NCc1ccc2cncc(-c3cc4ccccc4o3)c2c1
B: Oc1ccc(-c2cnnc3ccc(CN4CCNCC4)cc23)cc1
When A and B are compared, which has the higher number for pIC50? Reply with the label of the item you choose.
B
